# reported selectivity ratio; entries follow
system: DHFR (human versus Pneumocystis jirovecii); test: Selectivity ratio of IC50 for human recombinant DHFR to IC50 for Pneumocystis jirovecii recombinant DHFR; conditions: read-out: Ratio IC50

Record excerpt, results attached:
[ask] Report selectivity ratio, nothing else, for this compound: COc1ccc(Sc2[nH]c3nc(N)nc(N)c3c2C)cc1
[reply] 6

[ask] Report selectivity ratio, nothing else, for this compound: Cc1c(Sc2cccc3ccccc23)[nH]c2nc(N)nc(N)c12
[reply] 7

[ask] Report selectivity ratio, nothing else, for this compound: CCCCn1c(Sc2cccc(OC)c2)c(C)c2c(N)nc(N)nc21
[reply] 15

Others:
[ask] Report selectivity ratio, nothing else, for this compound: Cc1c(Sc2ccc3ccccc3c2)n(C)c2nc(N)nc(N)c12
[reply] 7

[ask] Report selectivity ratio, nothing else, for this compound: CCCn1c(Sc2cccc(OC)c2)c(C)c2c(N)nc(N)nc21
[reply] 24

Data provenance: ChEMBL document CHEMBL4219246
